tested on: C. glabrata clinical strains; assay: MIC, clinical yeast strains; format: cell-based, Candida glabrata; set-up: unit: µg/ml; conditions: C. glabrata clinical yeast strain 1
Square brackets hold non-standard residues; d marks the D form. Peptide text beside a SMILES is read from it.
Metric name: Minimum inhibitory concentration

Please review the entries below; each comes with its answer.
[[record]]
compound = "CC[C@@H](C)[C@@H](N)C(=O)N[C@H](Cc1c[nH]c2ccccc12)C(=O)N[C@H](CCCCN)C(=O)N[C@H](CCCNC(=N)N)C(=O)N[C@H](Cc1ccccc1)C(=O)N[C@H](CCCNC(=N)N)C(=O)N[C@H](CC(C)C)C(=O)N[C@H](Cc1ccccc1)C(=O)N[C@H](CCCCN)C(=O)N[C@H](CCCCN)C(=O)N[C@H](Cc1c[nH]c2ccccc12)C(=O)O [Chain304D] (H-[dI][dW][dK][dR][dF][dR][dL][dF][dK][dK][dW]-OH)"
metric_name = "Minimum inhibitory concentration"
measured_result = 16

[[record]]
compound = "CC(C)C[C@@H](NC(=O)[C@H](N)CCCNC(=N)N)C(=O)N[C@H](CCCCN)C(=O)N[C@H](Cc1c[nH]c2ccccc12)C(=O)N[C@H](Cc1ccccc1)C(=O)N[C@H](Cc1c[nH]c2ccccc12)C(=O)N[C@H](CC(C)C)C(=O)N[C@H](Cc1ccccc1)C(=O)N[C@H](CCCNC(=N)N)C(=O)N[C@H](CCCCN)C(=O)N[C@H](CCCNC(=N)N)C(=O)O [Chain307D] (H-[dR][dL][dK][dW][dF][dW][dL][dF][dR][dK][dR]-OH)"
metric_name = "Minimum inhibitory concentration"
measured_result = 8


We next turn to a different compound, shown below.
Provide measured Minimum inhibitory concentration value, entry: CC(C)C[C@@H](NC(=O)[C@@H](Cc1c[nH]c2ccccc12)NC(=O)[C@@H](Cc1ccccc1)NC(=O)[C@@H](Cc1c[nH]c2ccccc12)NC(=O)[C@@H](CCCCN)NC(=O)[C@@H](CCCNC(=N)N)NC(=O)[C@H](N)Cc1c[nH]c2ccccc12)C(=O)N[C@H](Cc1ccccc1)C(=O)N[C@H](CCCCN)C(=O)N[C@H](CCCCN)C(=O)N[C@H](CCCNC(=N)N)C(=O)O [Chain309D] (H-[dW][dR][dK][dW][dF][dW][dL][dF][dK][dK][dR]-OH)
32
